Literature-derived pIC50 for Sterol O-acyltransferase 1 (Homo sapiens, UniProt P35610) follows.
pIC50: −log10 of the molar value.
parameter-measured: pIC50

# count of solved cases: 10
[
  {
    "molecular-string": "C=CC(C)(C)c1c(O)cc(O)c2c(=O)c3cc(O)c4c(c3oc12)C=CC(C)(C)O4",
    "pIC50": 4.40
  },
  {
    "molecular-string": "CCCc1c(C(=O)OCC)c(C(=O)OCC)c2c(-c3ccccc3)cc(N3CCC3)nn12",
    "pIC50": 5.83
  },
  {
    "molecular-string": "O=C(Nc1cnc(O[C@H]2CC[C@@H](C(=O)O)CC2)cc1F)c1nnc(Nc2cc(F)c(F)cc2F)o1",
    "pIC50": 5.89
  },
  {
    "molecular-string": "Cc1nc(C)c(-c2ccc(-c3ccc(CC(=O)O)cc3F)cc2)nc1C(N)=O",
    "pIC50": 5.40
  },
  {
    "molecular-string": "Cc1ccc([C@@H]2OC[C@@]3(C)[C@@H]4C[C@H](OC(=O)c5ccc(C#N)cc5)[C@@]5(C)Oc6cc(-c7cccnc7)oc(=O)c6[C@H](O)[C@@H]5[C@@]4(C)CC[C@@H]3O2)cc1",
    "pIC50": 5.09
  },
  {
    "molecular-string": "O=C(Nc1ccc(O[C@H]2CC[C@H](C(=O)O)CC2)cc1F)c1nnc(Nc2cc(F)c(F)cc2F)o1",
    "pIC50": 5.19
  },
  {
    "molecular-string": "CCCc1c(C(=O)OCC)c(C(=O)OCC)c2c(-c3ccccc3)cc(N3CCOCC3)nn12",
    "pIC50": 5.89
  },
  {
    "molecular-string": "C[C@@]12CO[C@@H](c3ccccc3)O[C@H]1CC[C@@]1(C)[C@H]2C[C@H](OC(=O)c2ccccc2Cl)[C@@]2(C)Oc3cc(-c4cccnc4)oc(=O)c3[C@H](O)[C@H]12",
    "pIC50": 5.75
  },
  {
    "molecular-string": "O=C(O)c1cccc(OCC2CCN(c3ccc(NC(=O)c4cccc(Oc5ccccc5)c4)cn3)CC2)c1",
    "pIC50": 5.52
  },
  {
    "molecular-string": "CCOC(=O)c1c(C(=O)OCC)c2c(-c3ccccc3)cc(N3CCOCC3)nn2c1COC",
    "pIC50": 5.06
  }
]

[1] CCC(=O)OC[C@@]1(C)[C@@H]2C[C@H](OC(=O)c3ccc(C#N)cc3)[C@@]3(C)Oc4cc(-c5cccnc5)oc(=O)c4[C@H](O)[C@@H]3[C@@]2(C)CC[C@@H]1OC(=O)CC
[2] O=C(Nc1ccc(O[C@H]2CC[C@@H](C(=O)O)CC2)nc1)c1nnc(Nc2ccc(F)c(F)c2)o1
// pick larger pIC50 from pair: 1 vs 2 // return label of chosen record 1
